Target: Menin-MLL (Homo sapiens, UniProt O00255)
Construct: His-Menin (M1-L615 end); purchased BIORTUS BP9210
Sequence (O00255 1-615 isoform O00255-1): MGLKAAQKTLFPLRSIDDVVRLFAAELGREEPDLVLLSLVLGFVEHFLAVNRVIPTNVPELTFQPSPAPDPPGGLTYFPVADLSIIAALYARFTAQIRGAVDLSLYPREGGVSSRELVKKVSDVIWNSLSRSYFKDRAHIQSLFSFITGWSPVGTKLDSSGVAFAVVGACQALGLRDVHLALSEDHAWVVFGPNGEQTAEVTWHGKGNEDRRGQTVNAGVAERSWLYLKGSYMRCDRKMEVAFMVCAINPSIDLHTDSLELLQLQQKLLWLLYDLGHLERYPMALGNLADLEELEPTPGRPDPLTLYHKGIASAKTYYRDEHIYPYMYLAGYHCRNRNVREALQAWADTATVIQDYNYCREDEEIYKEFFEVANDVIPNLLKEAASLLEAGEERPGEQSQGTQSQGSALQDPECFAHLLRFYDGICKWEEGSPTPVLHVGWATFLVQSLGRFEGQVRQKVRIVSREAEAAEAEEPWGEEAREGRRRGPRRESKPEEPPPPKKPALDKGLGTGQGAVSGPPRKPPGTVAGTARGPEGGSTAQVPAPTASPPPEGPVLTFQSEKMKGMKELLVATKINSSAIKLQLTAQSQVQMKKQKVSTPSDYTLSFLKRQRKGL
Test: Inhibitory activity against Menin-MLL binding (fluorescence polarization)
Details: Menin-MLL IC50, fluorescence polarization; 150 nM His-Menin, 15 nM FITC-MLL; 25°C for 60 min
Overview of recorded log10 IC50 for various compounds
Please interpret these as log10 of IC50 where IC50 is in nM.

log10 IC50 for CO[C@H]1CCN([C@H]2C[C@@H](C(C(C)C)N3CC(c4cc(-c5ccc(F)cc5C(=O)N5CCOC[C@H]5C)c5cnn(C)c5c4)C3)C2)C1 (stereo partly drawn) [Example 196-2] is 1.23

log10 IC50 for CCN(C(=O)c1cc(F)ccc1-c1cc(C2CN(C(=O)C3NC4CCC3CC4)C2)cn2c(C)nc(Cl)c12)C(C)C (stereo not drawn) [Example 108] is 0.86

log10 IC50 for CCS(=O)(=O)N[C@H]1CC[C@H](CC(C)N2CC(c3cc(-c4ccc(F)cc4C(=O)N4CCOC[C@H]4C)c4cnn(C)c4c3)C2)CC1 (stereo partly drawn) [Example 175] is 2.14

log10 IC50 for CCN(C(=O)c1cc(F)ccc1-c1cc(C2CN(C(=O)[C@H]3NC[C@@H]4CCC[C@@H]43)C2)cn2c(C)nc(F)c12)C(C)C [Example 274] is 1.29

log10 IC50 for CCC(=O)N(c1cc(F)ccc1-c1cc(N2CCN(C(=O)C3NC4CCC3CC4)CC2)cn2c(C)ncc12)C(C)C (stereo not drawn) [Example 77] is 2.00

log10 IC50 for CCN(C(=O)c1cc(F)ccc1-c1cc([C@H]2CCN(C[C@H]3CC[C@H](NS(=O)(=O)CC)CC3)C2)nc2c1cnn2C)C(C)C [Example 11-2] is 1.82

----------
Biological target: Menin-MLL (Homo sapiens)
Construct: His-Menin (M1-L615 end); purchased BIORTUS BP9210
Assay: Inhibitory activity against Menin-MLL binding (fluorescence polarization)
Details: fluorescence polarization; 150 nM His-Menin, 15 nM FITC-MLL; 25°C for 60 min; read-out: Menin-MLL IC50
Binning scheme for IC50: c1: < 10 nM; c2: ≥ 10 nM and < 60 nM; c3: ≥ 60 nM

Would you please look over these solved cases?
- compound: "CCN(C(=O)c1cc(F)ccc1-c1cc(C2CN([C@H](CCCN3CCN(CCO)CC34COC4)C(C)C)C2)cn2c(C)ncc12)C(C)C [Example 482]"
  assayedTarget: "Menin-MLL (Homo sapiens)"
  classification: "c1"
- compound: "Cc1nc(F)c2c(-c3ccc(F)cc3C(=O)N3CCOC[C@H]3C)cc(C3CN(C[C@H]4CC[C@@H](n5cncn5)CC4)C3)cn12 [Example 267]"
  assayedTarget: "Menin-MLL (Homo sapiens)"
  classification: "c2"
- compound: "Cc1ncc2c(-c3ccc(F)cc3C(=O)N(CC(F)F)C(C)C)cc(C3CN([C@@H](CCCN4CCN(CCO)CC4)C(C)C)C3)cn12 [Example 459-2]"
  assayedTarget: "Menin-MLL (Homo sapiens)"
  classification: "c2"

**Query** Which class is correct for the following compound? CCS(=O)(=O)N[C@@H]1CC[C@@H](CN2CC[C@H](c3cc(-c4ccc(F)cc4C(=O)N(CC(F)F)C(C)C)c4cnc(C)n4c3)C2)OC1 [Example 163-2]
**Result** c2

**Query** Which class is correct for the following compound? Cc1nc(F)c2c(-c3ccc(F)cc3C(=O)N3CCOCC3C)cc(C3CN(C(C)C4CCN(C(=O)CC#N)CC4)C3)cn12 (stereo not shown) [Example 263-1]
**Result** c3

**Query** Which class is correct for the following compound? Cc1ncc2c(-c3ccc(F)cc3C(=O)N3[C@H](C)COC[C@H]3C)cc(C3CN(CC4CCOCC4)C3)cn12 [Example 212]
**Result** c2

**Query** Which class is correct for the following compound? CCN(C(=O)c1cc(F)ccc1-c1cc(C2(O)CN([C@H](CCCN3CCN(CCO)CC3)C(C)C)C2)cn2c(C)ncc12)C(C)C [Example 464-1]
**Result** c2

**Query** Which class is correct for the following compound? CCN(C(=O)c1cc(F)ccc1-c1cc(C2CN([C@H](CCCN(C)CCOC)C(C)C)C2)cn2c(C)ncc12)C(C)C [Example 510]
**Result** c1

**Query** Which class is correct for the following compound? CCN(C(=O)c1cc(F)ccc1-c1cc(C2CCN(C[C@H]3C[C@H](NS(=O)(=O)CC)C3)C2)cn2c(C)ncc12)C(C)C (stereo partly shown) [Example 102]
**Result** c3

**Query** Which class is correct for the following compound? CCN(C(=O)c1cc(F)ccc1-c1cc(C2CN([C@H](CCCN3CCN(C[C@@H](O)CO)CC3)C(C)C)C2)cc2c1cnn2C)C(C)C [Example 413]
**Result** c1

**Query** Which class is correct for the following compound? Cc1nc(F)c2c(-c3ccc(F)cc3C(=O)N3CCOC[C@H]3C)cc(C3CN([C@H](CN4CCN(C)CC4)C(C)C)C3)cn12 [Example 368-2]
**Result** c1

**Query** Which class is correct for the following compound? CCN(C(=O)c1cc(F)ccc1-c1cc(C2CN(C(C)C3CCN(C(C)=O)CC3)C2)cn2c(C)ncc12)C(C)C (stereo not shown) [Example 281]
**Result** c1

Each recorded value in this set is attributed to patent EP4782453A1.
